STUDY_TARGET: human OX40, cell surface-expressed (human) (UniProt P43489)
Sequence (P43489 29-277): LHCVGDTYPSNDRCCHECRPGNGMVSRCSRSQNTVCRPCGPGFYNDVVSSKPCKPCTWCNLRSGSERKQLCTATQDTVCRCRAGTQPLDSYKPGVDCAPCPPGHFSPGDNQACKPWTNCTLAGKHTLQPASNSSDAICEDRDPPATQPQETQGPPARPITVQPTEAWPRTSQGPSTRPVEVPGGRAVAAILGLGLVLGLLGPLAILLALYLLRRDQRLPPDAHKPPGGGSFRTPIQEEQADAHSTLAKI
ASSAY_COMMENT: flow cytometry, ExpiCHO-S cells with human OX40
ENDPOINT_LABEL: EC50 (read off the curve) (µg/mL)
Kindly answer with a numeric value in µg/mL, unit omitted.

Task: // lookup EC50 (read off the curve) for IgG1-CD134-MEDI0562 (antibody, INN chains, looked up, V domains shown, IgG1) VH: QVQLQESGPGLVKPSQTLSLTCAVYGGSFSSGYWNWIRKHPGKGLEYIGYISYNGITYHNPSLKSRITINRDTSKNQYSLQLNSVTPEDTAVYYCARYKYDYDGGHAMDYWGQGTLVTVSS VL: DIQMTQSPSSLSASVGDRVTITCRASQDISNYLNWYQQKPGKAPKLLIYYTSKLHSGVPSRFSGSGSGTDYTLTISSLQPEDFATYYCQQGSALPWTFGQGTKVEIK
Result: 0.07

Origin of measurements: patent US20240376221A1
